All values here come from patent US12358886B2.

# subject.of.test: Polθ protein (amino acids 2-2590) (Homo sapiens)
# Sequence (O75417 2-2590): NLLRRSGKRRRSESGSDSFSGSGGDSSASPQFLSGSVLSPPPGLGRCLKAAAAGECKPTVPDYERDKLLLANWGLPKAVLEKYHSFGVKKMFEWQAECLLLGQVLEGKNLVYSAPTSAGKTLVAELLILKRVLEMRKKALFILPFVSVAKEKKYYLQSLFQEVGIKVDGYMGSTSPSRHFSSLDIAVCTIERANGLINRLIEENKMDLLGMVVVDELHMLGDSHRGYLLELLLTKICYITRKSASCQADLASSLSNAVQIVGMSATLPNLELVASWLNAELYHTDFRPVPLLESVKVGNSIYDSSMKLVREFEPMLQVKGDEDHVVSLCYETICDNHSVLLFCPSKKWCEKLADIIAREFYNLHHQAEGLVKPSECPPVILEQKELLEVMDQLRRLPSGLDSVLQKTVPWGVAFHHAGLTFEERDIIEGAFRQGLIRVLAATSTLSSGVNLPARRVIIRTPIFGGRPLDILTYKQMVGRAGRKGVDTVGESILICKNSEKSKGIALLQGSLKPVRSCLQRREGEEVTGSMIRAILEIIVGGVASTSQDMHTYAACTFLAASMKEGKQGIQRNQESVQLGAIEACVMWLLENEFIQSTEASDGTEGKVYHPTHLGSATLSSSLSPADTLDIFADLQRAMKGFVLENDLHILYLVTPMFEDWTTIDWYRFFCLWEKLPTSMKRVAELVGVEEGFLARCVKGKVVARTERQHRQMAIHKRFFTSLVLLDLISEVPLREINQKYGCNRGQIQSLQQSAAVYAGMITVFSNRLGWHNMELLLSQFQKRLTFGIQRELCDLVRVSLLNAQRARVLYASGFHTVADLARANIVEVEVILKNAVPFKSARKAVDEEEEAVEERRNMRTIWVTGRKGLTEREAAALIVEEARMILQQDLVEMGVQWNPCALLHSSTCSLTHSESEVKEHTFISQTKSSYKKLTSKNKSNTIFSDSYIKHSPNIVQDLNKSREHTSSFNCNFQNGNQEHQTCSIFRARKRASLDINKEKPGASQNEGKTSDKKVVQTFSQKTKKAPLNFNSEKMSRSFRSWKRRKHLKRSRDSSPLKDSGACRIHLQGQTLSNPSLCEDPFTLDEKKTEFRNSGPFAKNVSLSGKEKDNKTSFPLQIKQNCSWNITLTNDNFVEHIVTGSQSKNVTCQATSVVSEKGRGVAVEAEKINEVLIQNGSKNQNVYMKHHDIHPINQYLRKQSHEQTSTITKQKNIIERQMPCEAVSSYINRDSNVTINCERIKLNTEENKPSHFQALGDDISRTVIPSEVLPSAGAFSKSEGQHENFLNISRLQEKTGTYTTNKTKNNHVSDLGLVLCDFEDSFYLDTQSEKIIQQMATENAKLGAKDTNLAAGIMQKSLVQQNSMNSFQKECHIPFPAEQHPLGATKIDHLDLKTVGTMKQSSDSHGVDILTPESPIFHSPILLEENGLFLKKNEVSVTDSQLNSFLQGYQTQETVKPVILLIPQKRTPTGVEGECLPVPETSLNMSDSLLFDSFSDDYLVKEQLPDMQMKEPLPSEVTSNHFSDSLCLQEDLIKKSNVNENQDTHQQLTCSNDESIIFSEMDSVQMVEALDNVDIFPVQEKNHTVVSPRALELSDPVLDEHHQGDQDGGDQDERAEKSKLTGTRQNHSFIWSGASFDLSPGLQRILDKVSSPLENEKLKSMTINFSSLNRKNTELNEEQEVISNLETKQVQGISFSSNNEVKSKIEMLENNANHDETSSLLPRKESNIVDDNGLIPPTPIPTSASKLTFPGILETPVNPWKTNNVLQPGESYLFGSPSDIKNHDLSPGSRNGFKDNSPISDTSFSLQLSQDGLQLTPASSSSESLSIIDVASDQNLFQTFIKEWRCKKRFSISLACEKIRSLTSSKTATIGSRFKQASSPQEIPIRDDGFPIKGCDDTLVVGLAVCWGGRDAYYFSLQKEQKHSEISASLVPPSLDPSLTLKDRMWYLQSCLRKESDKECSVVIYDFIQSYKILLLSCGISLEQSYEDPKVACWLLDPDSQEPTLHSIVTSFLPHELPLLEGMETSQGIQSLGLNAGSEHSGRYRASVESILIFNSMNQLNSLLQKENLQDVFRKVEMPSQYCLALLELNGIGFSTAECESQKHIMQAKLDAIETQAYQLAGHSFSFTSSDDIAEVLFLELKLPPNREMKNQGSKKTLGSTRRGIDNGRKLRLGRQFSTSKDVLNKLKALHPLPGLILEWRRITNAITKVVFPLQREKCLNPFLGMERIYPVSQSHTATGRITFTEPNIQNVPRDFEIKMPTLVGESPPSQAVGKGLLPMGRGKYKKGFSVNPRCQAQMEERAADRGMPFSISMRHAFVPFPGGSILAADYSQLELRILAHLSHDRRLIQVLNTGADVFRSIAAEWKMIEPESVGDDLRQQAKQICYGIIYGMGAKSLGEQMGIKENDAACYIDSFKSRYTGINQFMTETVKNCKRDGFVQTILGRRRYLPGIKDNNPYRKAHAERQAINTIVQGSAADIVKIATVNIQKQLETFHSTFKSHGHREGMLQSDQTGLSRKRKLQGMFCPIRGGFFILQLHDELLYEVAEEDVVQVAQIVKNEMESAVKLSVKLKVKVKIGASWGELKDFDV
# test.details: Polθ full length enzyme potency assay (PicoGreen)
# reported.conditions: Polθ IC50 (nM), full length N-His, C-term FLAG tagged Polθ, PicoGreen fluorescence, 12 point concentration response
Record form. Attribute: log10 IC50. Fill in for each entry.
In our notation, the value equals log10 of IC50 in nM.

Recorded log10 IC50 of `Cc1cc(C(F)(F)F)c(C#N)c(N2C[C@@H](O)C[C@H]2C(=O)N(C)c2cc(F)c(F)cc2F)n1` , please.
1.83

Same again, this time with CCN(C(=O)[C@@H]1C[C@H](N2CCC(O)C2)CN1c1cc(C(F)(F)F)cc(C)n1)c1ccc(F)c(F)c1 (stereo partly shown)
1.89

Also `Cc1cc(C(F)(F)F)c(C#N)c(N2CCC[C@H]2C(=O)N(C)c2ccc3ccn(C)c3n2)n1` ?
1.59

Could you do the same for `Cc1cc(C(F)(F)F)cc(N2C(=O)N(CCN3CC(O)C3)C[C@H]2C(=O)N(C)c2ccc(F)c(Cl)c2F)n1` , please?
0.85

Consider next the molecule `COc1cc(C(F)(F)F)c(C#N)c(N2C[C@@H](O)C[C@H]2C(=O)N(C)c2cccc(C)c2)n1` in the same way.
2.71

Do the same for `Cc1cc(C(F)(F)F)cc(N2C(=O)OC[C@H]2C(=O)N(C)c2ccc(Br)cc2F)n1` please
1.08

// repeat for Cc1cc(C(F)(F)F)cc(N2C(=O)N(CC3(O)CCNC3)C[C@H]2C(=O)N(C)c2ccc(F)c(Cl)c2F)n1 (stereo partly shown) and report
0.95

###

# subject.of.test: Polθ protein (amino acids 2-2590) (Homo sapiens)
# test.details: Polθ full length enzyme potency assay (PicoGreen)
# reported.conditions: Polθ IC50 (nM), full length N-His, C-term FLAG tagged Polθ, PicoGreen fluorescence, 12 point concentration response
Please note: IC50 exactly at 30 nM is condition not met. Only values below 30 nM get condition met.

Say whether its IC50 is strictly beneath 30 nM. Entry: C=C(C)c1cc(C)nc(N2C(=O)OC[C@H]2C(=O)N(C)c2ccc(F)c(Cl)c2)c1 [Example 117]
condition not met

Note, next up: Cc1cc(C(F)(F)F)cc(N2C(=O)N(CCN3CCCC3CO)C[C@H]2C(=O)N(C)c2ccc(F)c(Cl)c2)n1 (single isomer, unassigned; isomer 2) [Example 199]
condition not met

Try the molecule Cc1cccc(N(C)C(=O)[C@@H]2C[C@H](O)CN2c2nc(N(C)C)cc(C(F)(F)F)c2C#N)c1 [Example 32]
condition not met

Same question, Cc1cc(C(F)(F)F)cc(N2C(=O)C[C@@H](O)[C@H]2C(=O)N(C)c2ccc(F)c(Cl)c2)n1 [Example 80] this time
condition met

Another molecule: CCN(C(=O)[C@@H]1C[C@H](F)CN1c1nc(C)cc(C)c1C#N)c1ccc(F)c(F)c1 [Example 37]
condition not met

Now the molecule Cc1cc(C(F)(F)F)cc(N2C(=O)[C@@H](O)[C@@H](O)[C@H]2C(=O)N(C)c2ccc(F)c(C)c2)n1 [Example 67]
condition met

CCN(C(=O)[C@@H]1C[C@H](N2CCOC[C@H]2CO)CN1c1nc(C)cc(C(F)(F)F)c1C#N)c1ccc(F)c(Cl)c1 [Example 153] , same question.
condition not met
